Hey, just so you know, these numbers are from ChEMBL document CHEMBL6177930.

# System: T47D
# assayMethodText: Antiproliferative activity against human T47D cells assessed as inhibition of cell growth at 10 uM measured after 48 to 72 hrs by MTT assay relative to control
# Type: functional
# experimentalParameters: time 48-72 hrs
Returns one of true or false; true when inhibition at 10 µM is >= 4%.

querySmiles: Brc1ccc(Cc2nc(NCc3ccccn3)c3c4c(sc3n2)CCCC4)cc1
category: true

querySmiles: C#Cc1cccc(Nc2ncnc3cc(OCCOC)c(OCCOC)cc23)c1
category: false

querySmiles: CNc1nc(Cc2ccc(Br)cc2)nc2sc3c(c12)CCCC3
category: false

querySmiles: Brc1ccc(Cc2nc(N3CCCC3)c3c4c(sc3n2)CCCC4)cc1
category: false

querySmiles: Fc1ccc(CNc2nc(Cc3ccc(Br)cc3)nc3sc4c(c23)CCCC4)cc1
category: false

querySmiles: OCCNc1nc(Cc2ccc(Br)cc2)nc2sc3c(c12)CCCC3
category: true

querySmiles: C=CCNc1nc(Cc2ccc(Br)cc2)nc2sc3c(c12)CCCC3
category: false

querySmiles: Brc1ccc(Cc2nc(-n3ccnc3)c3c4c(sc3n2)CCCC4)cc1
category: false

querySmiles: CCCNc1nc(Cc2ccc(Br)cc2)nc2sc3c(c12)CCCC3
category: true
